Could you please report measured GI Irritation Score (180 mg-eq of MHF/kg) for the items listed next?
Test system: rat stomach
Assay: Gastrointestinal irritation evaluation in rats (Annamalai-Ma gastrointestinal irritation rat model)
Assay type: in vivo
Conditions: average stomach score (0-5 scale, Table 1) from at least 5 rats; oral, once per day for 4 consecutive days
Structures can show the parent of a compound that is named as a salt.
Lab note: jot down the number only; don't add units.

May I ask what GI Irritation Score (180 mg-eq of MHF/kg) has been recorded for COC(=O)/C=C/C(=O)OCCCCN1CCOCC1 ? 0.6

Form field: reported GI Irritation Score (180 mg-eq of MHF/kg) of COC(=O)/C=C/C(=O)OCC(=O)N1CCOCC1 2.9

Entry COC(=O)/C=C/C(=O)OCC(=O)N(C)C1CC1 : reported GI Irritation Score (180 mg-eq of MHF/kg) = ? 2.6

Quick one: GI Irritation Score (180 mg-eq of MHF/kg) of CCN(CC)C(=O)COC(=O)/C=C/C(=O)OC ? 1.4

Value lookup for GI Irritation Score (180 mg-eq of MHF/kg); key = COC(=O)/C=C/C(=O)OCCCN1CCOCC1 0.0

What does the record list as GI Irritation Score (180 mg-eq of MHF/kg) for COC(=O)/C=C/C(=O)OCC(=O)N(C)C ? 2.4

Returns the measured GI Irritation Score (180 mg-eq of MHF/kg) for the input compound. Input: CCN(C(=O)COC(=O)/C=C/C(=O)OC)C1CC1 1.0

Param item = COC(=O)/C=C/C(=O)OCC(=O)N1CCCC1 ; retrieve measured GI Irritation Score (180 mg-eq of MHF/kg). 3.0

For the compound COC(=O)/C=C/C(=O)OCCN1CCOCC1 , what GI Irritation Score (180 mg-eq of MHF/kg) is on record? 0.0

// query GI Irritation Score (180 mg-eq of MHF/kg) value for entry COC(=O)/C=C/C(=O)OCCCCCN1CCOCC1 0.0

Entry COC(=O)/C=C/C(=O)OCCCCCCN1CCOCC1 has what GI Irritation Score (180 mg-eq of MHF/kg)? 0.0

I would be grateful if you could share the reported GI Irritation Score (180 mg-eq of MHF/kg) for COC(=O)/C=C/C(=O)OC [Dimethyl Fumarate] . 4.6

====

Assignment: determine reported melting point for the given compounds.
Please respond with the number in °C and leave the unit unwritten.

Param item = CCN(C(=O)COC(=O)/C=C/C(=O)OC)C1CC1 ; retrieve measured melting point. 92.1

Look at this compound and give its reported melting point. COC(=O)/C=C/C(=O)OCC(=O)N1CCCC1 102.1

So what's the measured melting point for this one? COC(=O)/C=C/C(=O)OCC(=O)N(C)C1CC1 93.6
